Target Desc: UniProt P01116
Assay Explanation: Binding to KRAS by surface plasmon resonance (SPR), Single Cycle Kinetics
Recorded Conditions: SPR Single Cycle Kinetics, GDP-bound KRAS wild-type protein, 1:1 binding model; read-out: KRAS KD
Measurement Label: Kd (nM)
Could you give me the number in nM? Just the number is fine.

IN: Tell me Kd reported for `CC[C@H](C)[C@@H]1NC(=O)[C@H](COC)N(C)C(=O)C[C@@H](C(=O)N(C)C)N(C)C(=O)[C@H](C2CCCC2)N(C)C(=O)C2(CC(C)(C)C2)NC(=O)[C@@H]2C[C@@H](OC3CCCC3)CN2C(=O)[C@H](CCc2cc(F)c(C(F)(F)F)c(F)c2)NC(=O)CN(C)C(=O)[C@H](CC2CCCCC2)N2CC/C=C\C[C@@H](C2=O)N(C)C(=O)CN(C2CC2)C1=O`
OUT: 3

IN: Tell me Kd reported for `CCC[C@H]1C(=O)N[C@@H]([C@@H](C)CC)C(=O)N(C)CC(=O)N(C)[C@H]2C/C=C\CCN(C2=O)[C@@H](Cc2ccc(C(F)(F)F)cc2)C(=O)N(C)CC(=O)N[C@@H](CCc2ccc3sc(F)c(C)c3c2)C(=O)N2C[C@H](OCC)C[C@H]2C(=O)NC2(CC(C)(C)C2)C(=O)N(C)[C@@H](C(CC)CC)C(=O)N(C)[C@H](C(=O)N(C)C)CC(=O)N1C`
OUT: 0.28

IN: Tell me Kd reported for `CC[C@H](C)[C@@H]1NC(=O)[C@H](CC(C)C)N(C)C(=O)C[C@@H](C(=O)N2CCOCC2)N(C)C(=O)[C@H](C2CCCC2)N(C)C(=O)C2(CCCC2)NC(=O)[C@@H]2CCCN2C(=O)[C@H](CCc2cc(F)c(C(F)(F)F)c(F)c2)NC(=O)CN(C)C(=O)[C@H](Cc2ccc(C(F)(F)F)cc2)N2CCCC[C@@H](C2=O)N(C)C(=O)[C@H](C)NC1=O`
OUT: 1

* * *

Kindly state Kd for each of the entries shown.
Target Desc: GDP-bound KRAS wild-type protein (Homo sapiens, UniProt P01116)
Sequence (P01116 whole entry): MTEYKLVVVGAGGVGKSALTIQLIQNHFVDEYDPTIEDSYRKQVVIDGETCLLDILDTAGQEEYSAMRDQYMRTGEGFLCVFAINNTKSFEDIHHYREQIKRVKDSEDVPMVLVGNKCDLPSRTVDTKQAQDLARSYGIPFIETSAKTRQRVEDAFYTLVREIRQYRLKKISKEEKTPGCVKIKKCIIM
Assay Explanation: Binding to KRAS by surface plasmon resonance (SPR), Single Cycle Kinetics
Recorded Conditions: SPR, Single Cycle Kinetics, 1:1 binding model; GDP-bound KRAS wild-type protein; read-out: KRAS KD
Could you give me the number in nM? Just the number is fine.

IN: Tell me Kd reported for `CCO[C@@H]1C[C@H]2C(=O)NC3(CCC3)C(=O)N(C)[C@@H](C(CC)CC)C(=O)N(C)[C@H](C(=O)N(C)C)CC(=O)N(C)[C@@H](CC(C)C)C(=O)N[C@@H]([C@@H](C)CC)C(=O)N(C)CC(=O)N(C)[C@H]3C/C=C\CCN(C3=O)[C@@H](CC3CCCCC3)C(=O)N(C)CC(=O)N[C@@H](CCc3cc(F)c(C(F)(F)F)c(F)c3)C(=O)N2C1`
OUT: 0.61

IN: Tell me Kd reported for `CCO[C@@H]1C[C@H]2C(=O)NC3(CCC3)C(=O)N(C)[C@@H](C(CC)CC)C(=O)N(C)[C@H](C(=O)N(C)C)CC(=O)N(C)[C@@H](C)C(=O)N[C@@H]([C@@H](C)CC)C(=O)N(C)CC(=O)N(C)[C@H]3C/C=C\CCN(C3=O)[C@@H](Cc3ccc(C(F)(F)F)cc3)C(=O)N(C)CC(=O)N[C@@H](CCc3ccc(C(F)(F)F)c(OC)c3)C(=O)N2C1`
OUT: 0.17

IN: Tell me Kd reported for `CC[C@H](C)[C@@H]1NC(=O)[C@H](CC)N(C)C(=O)C[C@@H](C(=O)N(C)C)N(C)C(=O)[C@H](C2CCCC2)N(C)C(=O)C2(CCCC2)NC(=O)[C@@H]2CCCN2C(=O)[C@H](CCc2cc(F)c(C(F)(F)F)c(F)c2)NC(=O)CN(C)C(=O)[C@H](Cc2ccc(C(F)(F)F)cc2)N2C[C@H](C)[C@H](C)C[C@@H](C2=O)N(C)C(=O)CN(C)C1=O`
OUT: 0.05

IN: Tell me Kd reported for CCO[C@@H]1C[C@H]2C(=O)NC3(CC(C)(C)C3)C(=O)N(C)[C@@H](C(CC)CC)C(=O)N(C)C(C(C)C)CC(=O)N(C)[C@@H](CC3CC3)C(=O)N[C@@H]([C@@H](C)CC)C(=O)N(C)CC(=O)N(C)[C@H]3C/C=C\CCN(C3=O)[C@@H](Cc3ccc(C(F)(F)F)cc3)C(=O)N(C)CC(=O)N[C@@H](CCc3cc(F)c(C(F)(F)F)c(F)c3)C(=O)N2C1 (some centres unmarked)
OUT: 4.3

IN: Tell me Kd reported for `CC[C@H](C)[C@@H]1NC(=O)[C@H](CC)N(C)C(=O)C[C@@H](C(=O)N(C)C)N(C)C(=O)[C@H](C2CCCC2)N(C)C(=O)C2(CCCC2)NC(=O)[C@@H]2CCCN2C(=O)[C@H](CCc2ccc(C(F)(F)F)c(Cl)c2)NC(=O)CN(C)C(=O)[C@H](Cc2ccc(C(F)(F)F)cc2)N2C[C@H](C)CC[C@@H](C2=O)N(C)C(=O)CN(C)C1=O`
OUT: 0.074

IN: Tell me Kd reported for `CCO[C@@H]1C[C@H]2C(=O)NC3(CCC3)C(=O)N(C)[C@@H](C3CCCC3)C(=O)N(C)[C@H](C(=O)N(C)C)CC(=O)N(C)[C@@H](CC(C)C)C(=O)N[C@@H]([C@@H](C)CC)C(=O)N(C)CC(=O)N(C)[C@H]3C/C=C\CCN(C3=O)[C@@H](CC3CCCCC3)C(=O)N(C)CC(=O)N[C@@H](CCc3cc(F)c(C(F)(F)F)c(F)c3)C(=O)N2C1`
OUT: 0.12

IN: Tell me Kd reported for `CCO[C@@H]1C[C@H]2C(=O)NC3(CCCC3)C(=O)N(C)[C@@H](C3CCCC3)C(=O)N(C)[C@H](C(=O)N(C)C)CC(=O)N(C)[C@@H](CC3CC3)C(=O)N[C@@H]([C@@H](C)CC)C(=O)N(C)CC(=O)N(C)[C@H]3C[C@@H](C)[C@@H](C)CN(C3=O)[C@@H](Cc3ccc(C(F)(F)F)cc3)C(=O)N(C)CC(=O)N[C@@H](CCc3cc(F)c(C(F)(F)F)c(F)c3)C(=O)N2C1`
OUT: 0.047

IN: Tell me Kd reported for `CCO[C@@H]1C[C@H]2C(=O)NC3(CCC3)C(=O)N(C)[C@@H](C3CCCC3)C(=O)N(C)[C@H](C(=O)N3CCCC3)CC(=O)N(C)[C@@H](CC3CCC3)C(=O)N[C@@H]([C@@H](C)CC)C(=O)N(C)CC(=O)N(C)[C@H]3C/C=C\CCN(C3=O)[C@@H](Cc3ccc(C)cc3)C(=O)N(C)CC(=O)N[C@@H](CCc3cc(F)c(C(F)(F)F)c(F)c3)C(=O)N2C1`
OUT: 0.24

IN: Tell me Kd reported for `CCO[C@@H]1C[C@H]2C(=O)NC3(CCC3)C(=O)N(C)[C@@H](C3CCCC3)C(=O)N(C)[C@H](C(=O)N3CCCCC3)CC(=O)N(C)[C@@H](CC(C)C)C(=O)N[C@@H]([C@@H](C)CC)C(=O)N(C)CC(=O)N(C)[C@H]3C/C=C\CCN(C3=O)[C@@H](Cc3ccc(C(F)(F)F)cc3)C(=O)N(C)CC(=O)N[C@@H](CCc3cc(F)c(C(F)(F)F)c(F)c3)C(=O)N2C1`
OUT: 0.24

IN: Tell me Kd reported for `CCCC[C@H]1C(=O)N[C@@H]([C@@H](C)CC)C(=O)N(C)CC(=O)N(C)[C@H]2C/C=C\CCN(C2=O)[C@@H](Cc2ccc(C(F)(F)F)cc2)C(=O)N(C)CC(=O)N[C@@H](CCc2ccc(C(F)(F)F)c(OC)c2)C(=O)N2C[C@H](OCC)C[C@H]2C(=O)NC2(CC(C)(C)C2)C(=O)N(C)[C@@H](C2CCCC2)C(=O)N(C)[C@H](C(=O)N(C)C)CC(=O)N1C`
OUT: 0.064

IN: Tell me Kd reported for `CCC[C@H]1C(=O)N[C@@H]([C@@H](C)CC)C(=O)N(C)CC(=O)N(C)[C@H]2C/C=C\CCN(C2=O)[C@@H](Cc2ccc(C(F)(F)F)cc2)C(=O)N(C)CC(=O)N[C@@H](CCc2ccc3sccc3c2)C(=O)N2C[C@H](OCC)C[C@H]2C(=O)NC2(CCC2)C(=O)N(C)[C@@H](C(CC)CC)C(=O)N(C)[C@H](C(=O)N(C)C)CC(=O)N1C`
OUT: 1.2
